src = PubChem BioAssay (NCATS)

Test: Primary qHTS for inhibitors of nuclear receptor binding SET domain protein 2 (NSD2) in an RCH-ACV wild type WT cells (2C) (AID 1645877); note: nearly all actives have a fitted effect of over 70% in size; note: potency is the fitted concentration of half-maximal effect
Conditions: RCH-ACV (leukaemia line) NSD2 WT (2C) viability, CellTiter-Glo, 72 h; series mostly up to 44.9 µM
Inconclusive results are not listed. Calls of active or inactive are those of the source. Calls come from the whole dose curve; as a rule, active = well fitted inhibition curve with a large enough effect; inconclusive = small, poorly fitted or top-dose-only effect; inactive = no such curve, though single readings can be large or run the other way.
quantity.name: Potency

# compound, quantity.name, val
measured = [
    ("CCOC(=O)C1=C(C)NC(C)=C(C(=O)OCC)C1c1ccccc1/C=C/C(=O)OC(C)(C)C", "Potency", "16.8 µM (active)"),
    ("CC(C)Cc1ccc(C(C)C(=O)OCc2ccccn2)cc1 (configuration not stated)", "Potency", "inactive"),
    ("O=S(=O)(O)c1ccc2nc(-c3ccccc3)[nH]c2c1", "Potency", "inactive"),
    ("O=C1NC2CCCCN2C12CCN(CCCN1c3ccccc3CCc3ccc(Cl)cc31)CC2 (configuration not stated)", "Potency", "21.1 µM (active)"),
    ("C/C=C(/C(=C/C)c1ccc(OC(C)=O)cc1)c1ccc(OC(C)=O)cc1", "Potency", "3.76 µM (active)"),
    ("CC(=O)N[C@@H](CCC(N)=O)C(=O)O", "Potency", "inactive"),
    ("CC(C)CCCC(C)NCCC(C)C (configuration not stated)", "Potency", "inactive"),
    ("O=C(Nc1ccc(Cl)cc1)Nc1ccc(Cl)c(C(F)(F)F)c1", "Potency", "2.99 µM (active)"),
    ("O=C(Nc1ccc(Cl)cc1)Nc1ccc(Cl)c(Cl)c1", "Potency", "6.68 µM (active)"),
    ("CC(=O)/C=C/C=C1/C2CCC(C2)C1(C)C (configuration not stated)", "Potency", "inactive"),
    ("COC(=O)C1=C(C)NC(C)=C(C(=O)OCCc2ccc(N3CCN(C(c4ccccc4)c4ccccc4)CC3)cc2)C1c1cccc([N+](=O)[O-])c1 (configuration not stated)", "Potency", "inactive"),
    ("Nc1ccc2c(c1)CN1C(=O)c3ccccc3C1=N2", "Potency", "8.2 µM (active)"),
]
